EXPERIMENTAL TARGET: UniProt Q8IC05
ASSAY INFO: IC50 for competition of protein binding to Kinobeads
RUN CONDITIONS: assay detail: Kinobeads competition in P. falciparum blood-stage lysate
ASSAY ENDPOINT: IC50

Kindly note the recorded IC50 for O=c1[nH]c2ccc(Cl)cc2c(NC2CN3CCC2CC3)c1-c1nc2ccccc2[nH]1 (stereo unspecified) , which is > 20 µM

---

EXPERIMENTAL TARGET: UniProt Q8IJR8
ASSAY INFO: apparent dissociation constant (Kd app) from Kinobeads competition
RUN CONDITIONS: assay detail: Kinobeads competition in P. falciparum blood-stage lysate
ASSAY ENDPOINT: pKd
Remember, pKd is on a log scale: it is -log10 of the molar concentration.

Kindly note the recorded pKd for O=c1[nH]c2ccc(Cl)cc2c(NC2CN3CCC2CC3)c1-c1nc2ccccc2[nH]1 (stereo unspecified) , which is 6.50
